Assay: Quantitative High-Throughput drug screen in 47 multiple myeloma cell lines against the NCATS MIPE library collection: OCIMY1_PLB cell viability assay (AID 1918979); further: nearly all actives have a fitted effect of over 35% in size;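 on viability: 100% = DMSO-only wells and 0% = cell-free media-only wells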
Settings: OCI-MY1 myeloma viability, CellTiter-Glo ATP, 48 h; series mostly up to 45.8 µM
Records with an inconclusive call do not appear. Activity calls are given as the source filed them. The call rests on the fitted dose curve; in most records, active means well fitted cell-killing curve with a large enough effect; inconclusive means small, poorly fitted or top-dose-only effect, or effect the other way; inactive means no such curve, though single readings can be large or run the other way.
Respond only with the outcome that fits, drawn from 1.0 for active, 0.0 for inactive

Check out these entries, answers already filled in.
CC[C@@H]1[C@@H](C)O[C@@](O)([C@@H](C)[C@H](O)[C@H](C)[C@H]2OC(=O)C=CC=C[C@@H](C)[C@@H]([C@@H](C)[C@@H](O)[C@H](C)[C@@]3(O)C[C@H](O[C@H]4C[C@H](O)[C@H](O)[C@H](C)O4)[C@H](CC)[C@@H](C)O3)OC(=O)C=CC=C[C@@H]2C)C[C@H]1O[C@H]1C[C@H](O)[C@H](O)[C@H](C)O1 :: 1.0
C#CC1(O)CCC2C3CCC4=CC(=O)CCC4(C)C3CCC21C (centres undefined) :: 0.0
O=S(=O)(F)Cc1ccccc1 :: 0.0

Could you now consider this next compound?
Inquiry: Hi, sorry to bother you, what did the test record for CN[C@@H]1Cc2cccc3[nH]c(=O)n(c23)C1 ?
Reply text: 0.0
